What follows is a collection of pIC50 values obtained with Sucrase-isomaltase, intestinal (Rattus norvegicus, UniProt P23739).
Sequence (P23739 1-1013 limits assumed): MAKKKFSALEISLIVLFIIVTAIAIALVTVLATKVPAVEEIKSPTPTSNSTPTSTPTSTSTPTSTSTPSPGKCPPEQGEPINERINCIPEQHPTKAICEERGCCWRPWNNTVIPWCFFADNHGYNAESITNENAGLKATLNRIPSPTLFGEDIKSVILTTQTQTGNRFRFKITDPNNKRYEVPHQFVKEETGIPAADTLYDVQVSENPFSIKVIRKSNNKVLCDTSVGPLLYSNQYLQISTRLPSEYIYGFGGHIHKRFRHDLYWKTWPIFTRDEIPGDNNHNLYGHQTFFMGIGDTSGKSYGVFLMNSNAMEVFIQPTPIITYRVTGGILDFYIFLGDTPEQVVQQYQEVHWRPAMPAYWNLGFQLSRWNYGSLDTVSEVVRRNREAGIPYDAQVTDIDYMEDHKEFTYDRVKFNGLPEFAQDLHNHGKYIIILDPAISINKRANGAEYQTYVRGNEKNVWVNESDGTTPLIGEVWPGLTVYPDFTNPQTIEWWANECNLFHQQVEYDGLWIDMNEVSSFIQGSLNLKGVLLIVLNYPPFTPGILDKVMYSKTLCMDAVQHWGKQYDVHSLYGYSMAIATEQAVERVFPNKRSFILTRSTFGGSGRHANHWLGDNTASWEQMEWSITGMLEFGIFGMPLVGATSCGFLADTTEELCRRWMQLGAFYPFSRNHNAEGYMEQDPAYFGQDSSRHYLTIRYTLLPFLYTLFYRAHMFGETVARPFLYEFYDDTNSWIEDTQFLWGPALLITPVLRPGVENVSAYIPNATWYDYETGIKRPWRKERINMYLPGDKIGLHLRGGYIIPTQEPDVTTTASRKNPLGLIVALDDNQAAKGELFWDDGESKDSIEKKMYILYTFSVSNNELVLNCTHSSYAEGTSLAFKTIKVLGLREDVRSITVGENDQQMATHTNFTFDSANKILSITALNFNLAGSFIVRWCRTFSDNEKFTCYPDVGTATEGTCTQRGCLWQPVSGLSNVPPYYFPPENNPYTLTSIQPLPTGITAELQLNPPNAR
Sequence (P23739 1014-1841 limits assumed): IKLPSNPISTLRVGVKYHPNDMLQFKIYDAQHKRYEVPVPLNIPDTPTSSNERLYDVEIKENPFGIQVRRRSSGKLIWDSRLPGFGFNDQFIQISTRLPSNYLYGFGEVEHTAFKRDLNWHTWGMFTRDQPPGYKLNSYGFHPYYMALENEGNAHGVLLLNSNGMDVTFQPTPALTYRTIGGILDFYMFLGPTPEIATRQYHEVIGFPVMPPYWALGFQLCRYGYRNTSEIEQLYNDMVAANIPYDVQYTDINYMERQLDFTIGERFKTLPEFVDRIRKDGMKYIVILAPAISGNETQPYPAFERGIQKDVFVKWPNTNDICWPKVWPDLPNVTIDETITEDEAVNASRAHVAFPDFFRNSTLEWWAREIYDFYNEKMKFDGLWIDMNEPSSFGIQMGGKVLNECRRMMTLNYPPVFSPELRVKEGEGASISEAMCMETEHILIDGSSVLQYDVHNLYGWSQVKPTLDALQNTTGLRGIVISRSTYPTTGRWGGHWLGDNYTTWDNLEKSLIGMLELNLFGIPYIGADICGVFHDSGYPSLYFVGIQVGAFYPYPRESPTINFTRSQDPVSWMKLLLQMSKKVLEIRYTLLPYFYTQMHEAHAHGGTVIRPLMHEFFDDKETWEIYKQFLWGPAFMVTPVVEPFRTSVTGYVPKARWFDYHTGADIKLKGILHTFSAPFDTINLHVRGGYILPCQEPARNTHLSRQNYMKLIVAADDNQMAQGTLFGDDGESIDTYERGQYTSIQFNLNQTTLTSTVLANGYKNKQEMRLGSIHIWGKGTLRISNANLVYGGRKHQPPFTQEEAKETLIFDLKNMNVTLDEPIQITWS
Numbers only, as −log10 of the molar value.

Use these answered entries as a reference point.
OC[C@@H]1[C@@H](O)[C@H](O)C[S+]1C[C@@H](O)[C@H](O)[C@H](O)[C@@H](O)CO (stereo not given in full): 6.52
OC[C@@H]1[C@@H](O)[C@H](O)C[S+]1C[C@@H](O)[C@H](OCc1ccccc1Cl)[C@H](O)[C@@H](O)CO.[Cl-] (stereo not given in full): 6.15
OC[C@@H]1[C@@H](O)[C@H](O)C[S+]1C[C@@H](O)[C@H](OCc1cccc(C(F)(F)F)c1)[C@H](O)[C@@H](O)CO.[Cl-] (stereo not given in full): 6.35
OC[C@@H]1[C@@H](O)[C@H](O)C[S+]1C[C@@H](O)[C@H](OCc1ccc(C(F)(F)F)cc1)[C@H](O)[C@@H](O)CO.[Cl-] (stereo not given in full): 5.34

Please turn your attention to the following entry.
Query: Suppose we examine the compound O=[N+]([O-])c1ccccc1CO[C@H]([C@H](O)[C@@H](O)CO)[C@H](O)C[S+]1C[C@@H](O)[C@H](O)[C@H]1CO.[Cl-] (stereo not given in full) ; what pIC50 value has been reported?
Response: 6.49
